Could you please report measured Ratio IC50 for the items listed next?
Test system: L1210
Test: Ratio of IC50 for Mycoplasma hyorhinis-infected mouse L1210 cells to IC50 for mouse L1210/0 cells after 48 hrs by cell counting
Format: functional
Numbers only.

Q) For the molecule shown here, CC[C@H](C)[C@H](NP(=O)(OC[C@H]1O[C@@H](n2cc(F)c(=O)[nH]c2=O)C[C@@H]1O)Oc1ccccc1)C(=O)OCc1ccccc1 (mixture of isomers) , give the reported Ratio IC50.
A) 2.2

Q) Endpoint output: Ratio IC50 of CCOC(=O)C(C)(C)NP(=O)(OC[C@H]1O[C@@H](n2cc(F)c(=O)[nH]c2=O)C[C@@H]1O)Oc1cccc2ccccc12 (mixture of isomers) . Value?
A) 3

// next entry
Q) Which Ratio IC50 reading was recorded for the molecule CSCC[C@H](NP(=O)(OC[C@H]1O[C@@H](n2cc(F)c(=O)[nH]c2=O)C[C@@H]1O)Oc1cccc2ccccc12)C(=O)OCc1ccccc1 (mixture of isomers) ?
A) 3.7

====

Test system: L1210
Experiment: Ratio of IC50 for Mycoplasma hyorhinis-infected mouse L1210 cells to IC50 for mouse L1210/0 cells after 48 hrs by cell counting
Type: functional
Please go through the items and note down their Ratio IC50.
Give bare numbers.

Example entries begin here.
Q) Requested field: Ratio IC50. Item: C[C@H](NP(=O)(OC[C@H]1O[C@@H](n2cc(F)c(=O)[nH]c2=O)C[C@@H]1O)Oc1cccc2ccccc12)C(=O)OC1CCOCC1 (mixture of isomers)
A) 11.7

Q) Look up Ratio IC50: CCCCCOC(=O)[C@@H](NP(=O)(OC[C@H]1O[C@@H](n2cc(F)c(=O)[nH]c2=O)C[C@@H]1O)Oc1cccc2ccccc12)[C@@H](C)CC (mixture of isomers)
A) 1.67

Q) Return reported Ratio IC50; argument: C[C@H](NP(=O)(OC[C@H]1O[C@@H](n2cc(F)c(=O)[nH]c2=O)C[C@@H]1O)Oc1ccccc1)C(=O)OC1CCCCC1 (mixture of isomers)
A) 1.25

Q) Requested field: Ratio IC50. Item: C[C@H](NP(=O)(OC[C@H]1O[C@@H](n2cc(F)c(=O)[nH]c2=O)C[C@@H]1O)Oc1cccc2ccccc12)C(=O)OC1CCC1 (mixture of isomers)
A) 2.2

Q) Entry under review: CCOC(=O)[C@@H](NP(=O)(OC[C@H]1O[C@@H](n2cc(F)c(=O)[nH]c2=O)C[C@@H]1O)Oc1ccccc1)C(C)C (mixture of isomers) . Reported Ratio IC50?
A) 22

Please state Ratio IC50 for every compound in the list that follows.
1. CCCCCOC(=O)[C@H](C)NP(=O)(OC[C@H]1O[C@@H](n2cc(F)c(=O)[nH]c2=O)C[C@@H]1O)Oc1cccc2ccccc12 (mixture of isomers)
2. CCCCOC(=O)[C@H](C)NP(=O)(OC[C@H]1O[C@@H](n2cc(F)c(=O)[nH]c2=O)C[C@@H]1O)Oc1cccc2ccccc12 (mixture of isomers)
3. C[C@H](NP(=O)(OC[C@H]1O[C@@H](n2cc(F)c(=O)[nH]c2=O)C[C@@H]1O)Oc1cccc2ccccc12)C(=O)OCC1CC1 (mixture of isomers)
4. CCCCCOC(=O)[C@H](CC(C)C)NP(=O)(OC[C@H]1O[C@@H](n2cc(F)c(=O)[nH]c2=O)C[C@@H]1O)Oc1cccc2ccccc12 (mixture of isomers)
5. C[C@H](NP(=O)(OC[C@H]1O[C@@H](n2cc(F)c(=O)[nH]c2=O)C[C@@H]1O)Oc1cccc2ccccc12)C(=O)OC1CCCCC1 (mixture of isomers)
6. CCOC(=O)[C@H](C)NP(=O)(OC[C@H]1O[C@@H](n2cc(F)c(=O)[nH]c2=O)C[C@@H]1O)Oc1ccccc1 (mixture of isomers)
7. C[C@H](NP(=O)(OC[C@H]1O[C@@H](n2cc(F)c(=O)[nH]c2=O)C[C@@H]1O)Oc1cccc2ccccc12)C(=O)OC1Cc2ccccc2C1 (mixture of isomers)

A)
1: 2.9; 2: 2.2; 3: 2.2; 4: 1.13; 5: 1.4; 6: 5; 7: 1.08
